Attribute: pIC50
tgt: HBX2 HIV integrase (Human immunodeficiency virus type 1 group M subtype B)
Construct: The pET-15b-IN plasmid contains the cDNA encoding the HBX2 HIV integrase; His tag (N, cleaved yes); made in house; host or cells: Escherichia coli BL21 (DE3)
procedure.text: Strand Transfer Assay
Format: biochemical
protocol.conditions: U5A-U5B-2 substrate DNA 12.5 nM, IN 200nM, 10mM MgCl2, up to 2 h at 37°C; read-out: Transfert IC50
A value of pIC50 is the negative decimal logarithm of a concentration given in moles per litre.

1) O=C(O)c1ccc2ccc(/C=C/c3cc(O)c(O)c([N+](=O)[O-])c3)nc2c1O; 6.74

Query molecule follows.
Prompt: Recorded pIC50 for COc1cc(/C=C/c2ccc3ccc(Br)c(O)c3n2)cc(O)c1O with HBX2 HIV integrase (Human immunodeficiency virus type 1 group M subtype B), please?
Completion: 6.02
